Data origin: patent US20100087371

experimental target: hGHQ40N, P01241
Sequence (P01241 27-217 Q66N): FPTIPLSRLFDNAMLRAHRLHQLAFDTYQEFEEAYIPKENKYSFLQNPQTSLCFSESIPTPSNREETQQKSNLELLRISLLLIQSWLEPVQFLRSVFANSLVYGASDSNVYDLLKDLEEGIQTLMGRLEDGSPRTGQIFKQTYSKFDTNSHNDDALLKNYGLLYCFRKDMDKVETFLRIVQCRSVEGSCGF
metric name: Activity towards hGHQ40N (RFU/sec/µg), dansyl-cadaverine incorporation
Your answer is read as RFU/sec/µg, so omit the unit and give the number.

State the recorded Activity towards hGHQ40N (RFU/sec/µg), dansyl-cadaverine incorporation for this entry: GlyPro-mTGase from S. mobaraensis (protein) GPDSDDRVTPPAEPLDRMPDPYRPSYGRAETVVNNYIRKWQQVYSHRDGRKQQMTEEQREWLSYGCVGVTWVNSGQYPTNRLAFASFDEDRFKNELKNGRPRSGETRAEFEGRVAKESFDEEKGFQRAREVASVMNRALENAHDESAYLDNLKKELANGNDALRNEDARSPFYSALRNTPSFKERNGGNHDPSRMKAVIYSKHFWSGQDRSSSADKRKYGDPDAFRPAPGTGLVDMSRDRNIPRSPTSPGEGFVNFDYGWFGAQTEADADKTVWTHGNHYHAPNGSLGAMHVYESKFRNWSEGYSDFDRGAYVITFIPKSWNTAPDKVKQGWP
4.28

Please do the same for Met-mTGase from S. ladakanum (protein) MDSDERVTPPAEPLDRMPDPYRPSYGRAETIVNNYIRKWQQVYSHRDGRKQQMTEEQREWLSYGCVGVTWVNSGQYPTNRLAFAFFDEDKYKNELKNGRPRSGETRAEFEGRVAKDSFDEAKGFQRARDVASVMNKALENAHDEGAYLDNLKKELANGNDALRNEDARSPFYSALRNTPSFKDRNGGNHDPSKMKAVIYSKHFWSGQDRSGSSDKRKYGDPEAFRPDRGTGLVDMSRDRNIPRSPTSPGESFVNFDYGWFGAQTEADADKTVWTHGNHYHAPNGSLGAMHVYESKFRNWSDGYSDFDRGAYVVTFVPKSWNTAPDKVKQGWP as well.
4.74
